Target: hPR (Homo sapiens)
Sequence (P06401 679-933 limits assumed): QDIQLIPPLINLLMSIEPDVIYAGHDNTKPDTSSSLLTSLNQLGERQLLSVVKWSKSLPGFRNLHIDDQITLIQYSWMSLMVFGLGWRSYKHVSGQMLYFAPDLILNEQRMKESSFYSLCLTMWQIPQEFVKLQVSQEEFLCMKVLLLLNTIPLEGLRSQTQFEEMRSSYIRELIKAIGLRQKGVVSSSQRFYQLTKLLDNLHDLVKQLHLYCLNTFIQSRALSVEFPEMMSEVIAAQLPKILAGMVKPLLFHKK
Experiment: T47D alkaline phosphatase assay, antagonist mode
Assay type: cell-based
Conditions: T47D human breast cancer cells; read-out: hPR Antagonists T47D Cells Eff. (%)
attribute measured: Emax (%)
Numbers only, in %.

Consider the following illustrative entries.
# molecule, target, endpoint value
measured = [
    ("CC1=CC(C)(C)Nc2ccc3c(c21)/C(=C/c1cc(F)ccc1F)Oc1c(F)cc(F)cc1-3 [Compound 17]", "hPR (Homo sapiens)", 42),
    ("CC1=CC(C)(C)Nc2ccc3c(c21)C(c1cccc(Cl)c1)Oc1c(F)cc(F)cc1-3 (racemic) [Compound 41]", "hPR (Homo sapiens)", 50),
    ("CC1=CC(C)(C)Nc2ccc3c(c21)/C(=C/c1ccncc1C)Oc1c(F)cc(F)cc1-3 [Compound 20]", "hPR (Homo sapiens)", 59),
    ("CC1=CC(C)(C)Nc2ccc3c(c21)/C(=C/c1ccncc1)Oc1c(F)cc(F)cc1-3 [Compound 14]", "hPR (Homo sapiens)", 44),
    ("CC1=CC(C)(C)Nc2ccc3c(c21)C(c1ccc(Cl)c(C)c1)Oc1c(F)cc(F)cc1-3 (single isomer, unassigned; (+)) [Compound 39]", "hPR (Homo sapiens)", 29),
    ("CC1=CC(C)(C)Nc2ccc3c(c21)C(c1cc2ccccc2s1)Oc1c(F)cc(F)cc1-3 (racemic) [Compound 63]", "hPR (Homo sapiens)", 49),
]

Go through the list and state Emax for each entry.
1. CC1=CC(C)(C)Nc2ccc3c(c21)/C(=C/c1cccs1)Oc1c(F)cc(F)cc1-3 [Compound 31]
2. CC1=CC(C)(C)Nc2ccc3c(c21)/C(=C/c1ccsc1)Oc1c(F)cc(F)cc1-3 [Compound 30]
3. COc1ccc(F)cc1/C=C1\Oc2c(F)cc(F)cc2-c2ccc3c(c21)C(C)=CC(C)(C)N3 [Compound 26]
4. COc1ccccc1/C=C1\Oc2c(F)cc(F)cc2-c2ccc3c(c21)C(C)=CC(C)(C)N3 [Compound 18]

*A*
39
44
46
58

---

Target: UniProt P06401
Assay: hPR cotransfection assay in CV-1 cells, agonist mode
Format: cell-based
Conditions: Tables 3 and 4, values without footnote; read-out: hPR agonist potencies (EC50 in nM) in the cotransfection assay
Sequence (P06401 whole entry): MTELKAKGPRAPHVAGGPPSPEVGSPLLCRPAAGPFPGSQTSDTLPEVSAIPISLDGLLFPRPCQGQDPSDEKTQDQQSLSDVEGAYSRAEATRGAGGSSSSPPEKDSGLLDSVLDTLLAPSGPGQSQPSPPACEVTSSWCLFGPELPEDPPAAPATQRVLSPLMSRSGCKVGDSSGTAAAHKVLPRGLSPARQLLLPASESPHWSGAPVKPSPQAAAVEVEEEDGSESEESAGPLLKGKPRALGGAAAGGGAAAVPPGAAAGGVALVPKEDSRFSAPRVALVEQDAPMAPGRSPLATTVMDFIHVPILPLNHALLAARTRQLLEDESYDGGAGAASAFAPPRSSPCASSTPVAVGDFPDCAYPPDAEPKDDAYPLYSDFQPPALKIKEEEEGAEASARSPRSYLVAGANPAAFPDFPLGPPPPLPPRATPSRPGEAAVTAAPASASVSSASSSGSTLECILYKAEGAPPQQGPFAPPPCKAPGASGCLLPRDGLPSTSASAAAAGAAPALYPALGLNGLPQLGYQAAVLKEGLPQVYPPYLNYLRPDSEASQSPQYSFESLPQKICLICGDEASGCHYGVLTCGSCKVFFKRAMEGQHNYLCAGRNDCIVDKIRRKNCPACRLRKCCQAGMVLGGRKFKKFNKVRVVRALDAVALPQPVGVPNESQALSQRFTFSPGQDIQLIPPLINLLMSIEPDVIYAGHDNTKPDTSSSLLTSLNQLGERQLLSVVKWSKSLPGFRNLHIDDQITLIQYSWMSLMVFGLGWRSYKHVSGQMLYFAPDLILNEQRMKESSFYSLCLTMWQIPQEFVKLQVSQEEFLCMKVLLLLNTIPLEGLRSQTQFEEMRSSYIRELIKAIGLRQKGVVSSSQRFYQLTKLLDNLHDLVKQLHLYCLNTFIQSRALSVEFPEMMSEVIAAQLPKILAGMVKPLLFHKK
Provide the reported EC50 of each item.
Numbers only, in nM.

Consider the following illustrative entries.
# molecule, attribute measured, endpoint value
rows = [
    ("CC1=CC(C)(C)Nc2ccc3c(c21)/C(=C/c1ccccc1F)Oc1ccc(F)cc1-3 [Formula II X=9-F 2-F-Ph, reference compound]", "EC50", 7.3),
    ("CC1=CC(C)(C)Nc2ccc3c(c21)/C(=C/c1ccc(F)cc1)Oc1ccc(F)cc1-3 [Formula II X=9-F 4-F-Ph, reference compound]", "EC50", 3.95),
    ("CC1=CC(C)(C)Nc2ccc3c(c21)C(c1cccc(C)c1)Oc1ccccc1-3 (stereo not shown) [Formula I X=H 3-Me-Ph, reference compound]", "EC50", 145),
    ("CC1=CC(C)(C)Nc2ccc3c(c21)C(c1cccc(Br)c1)Oc1c(F)cc(F)cc1-3 (racemic)", "EC50", 3.65),
    ("CC1=CC(C)(C)Nc2ccc3c(c21)C(c1cccc(F)c1)Oc1c(F)cc(F)cc1-3 (racemic)", "EC50", 6.66),
]

Go through the list and state EC50 for each entry.
1. CC1=CC(C)(C)Nc2ccc3c(c21)/C(=C/c1cc(F)ccc1F)Oc1c(F)cc(F)cc1-3
2. CC1=CC(C)(C)Nc2ccc3c(c21)/C(=C/c1cc(F)ccc1F)Oc1cc(O)ccc1-3 [Formula II X=8-OH 2,5-diF-Ph, reference compound]
3. COc1ccc2c(c1)O/C(=C\c1cccc(F)c1)c1c-2ccc2c1C(C)=CC(C)(C)N2 [Formula II X=8-OMe 3-F-Ph, reference compound]
4. CC1=CC(C)(C)Nc2ccc3c(c21)/C(=C/c1ccccc1)Oc1cc(F)ccc1-3 [Formula II X=8-F Phenyl, reference compound]
5. CC1=CC(C)(C)Nc2ccc3c(c21)C(c1ccc(Cl)cc1)Oc1c(F)cc(F)cc1-3 (racemic)
6. COc1ccc2c(c1)O/C(=C\c1ccccc1OC)c1c-2ccc2c1C(C)=CC(C)(C)N2 [Formula II X=8-OMe 2-MeO-Ph, reference compound]
7. CC1=CC(C)(C)Nc2ccc3c(c21)/C(=C/c1ccccc1)Oc1ccc(F)cc1-3 [Formula II X=9-F Phenyl, reference compound]
8. CC1=CC(C)(C)Nc2ccc3c(c21)/C(=C/c1ccccc1)Oc1ccc(O)cc1-3 [Formula II X=9-OH Phenyl, reference compound]

*A*
[2.9, 10, 8.6, 187, 5.1, 24, 5.25, 54.4]
